Data provenance: a melting point compilation (Tetko et al.; mined from patent text by program, amines drawn as free bases though some values may be those of a salt)

Consider the following molecules and their measured melting point readings.
Output spec: scalar in °C, unitless text.

CCOC(=O)Nc1cc(N(C(=O)OCC)S(C)(=O)=O)c(C#N)cc1F :: 129

melting point measured on CCCCCc1ccc(-c2ccc(CC#N)cc2)cc1 = 80

* * *

endpoint-name: melting point

Look over these answered cases.
O=Cc1ccc(OCc2ccccc2)cn1 :: 68 to 70 °C
Cc1cc(C)cc(CNC(=O)C(Cc2c[nH]c3ccccc23)NC(=O)c2ccccc2)c1 (configuration not stated) :: 177 to 178 °C
O=[N+]([O-])c1cnccc1Oc1ccc(Cl)cc1 :: 93 to 94 °C

melting point measured on Cc1cc(O)c(N2CC(=O)NS2(=O)=O)c(F)c1 = 164 to 166 °C

melting point measured on CCc1cc2ccccc2c(=O)o1 = 69 °C

melting point measured on N#Cc1cccc(Cc2ccccc2C=NC(c2ccccc2)c2ccccc2)c1 = 113 to 115 °C

melting point measured on CCCOc1ccc(OC)cc1-c1ncc(C(=O)O)c(=O)[nH]1 = 185 to 187 °C

melting point measured on COc1cc2c(cc1OC)C(c1ccnc(-n3nc(-c4cccnc4)c4ccccc4c3=O)c1)=N[C@H](CO)C2 = 235 to 238 °C

melting point measured on Cc1nc2ccc(N(C)C)nn2c1S(N)(=O)=O = 227 °C

melting point measured on CC(=O)N(c1cccc(C(=O)O)c1)c1cc(C(C)(C)C)c(O)c(C(C)(C)C)c1 = 204 to 206 °C

melting point measured on CCNC(=O)CN(c1ccccc1)[C@@H]1c2cc(C#N)ccc2OC(C)(C)[C@@H]1O = 202 to 204 °C

melting point measured on COc1cc2oc(=O)c3c(c2cc1OC)CCN(CCN1CC2CCCC(C2)C1)C3 = 122 to 125 °C
